# Tested on: B16F10 mouse melanoma cells
# EXPERIMENT NOTES: B16F10 IFNγ-induced cellular growth inhibition assay
# Type: cell-based
# MEASUREMENT CONDITIONS: Mus musculus, B16-F10; +0.5 ng/mL IFNγ; 33 μM compound; relative to DMSO control; read-out: % B16F10 growth inhibition (+0.5 ng/mL IFNγ) @ 33 μM
ASSAY METRIC: inhibition at 33 µM

A selection of reference data follows.
> print(dat)
                                   compound  measurement
1  O=C1CN(c2c(O)cc3ccc(OCC4CCCOC4)cc3c2F)S(=O)(=O)N1 (centres unmarked) [Compound 271]    60 to 90%
2  CC[C@H]1C[C@@H]1COc1ccc2cc(O)c(N3CC(=O)NS3(=O)=O)c(F)c2c1 (racemic) [Compound 218]    25 to 59%
3  CC(C)(O)CCOc1ccc2cc(O)c(N3CC(=O)NS3(=O)=O)c(F)c2c1 [Compound 182]    60 to 90%
4  CC(C)(N)CCOc1ccc2cc(O)c(N3CC(=O)NS3(=O)=O)c(F)c2c1 [Compound 165]        > 90%

Lab note: compound CC(C)CCOc1ccc2cc(O)c(N3CC(=O)NS3(=O)=O)c(F)c2c1 [Compound 204] tested on B16F10 mouse melanoma cells; recorded inhibition at 33 µM was 60 to 90%

Lab note: compound O=C1CN(c2c(O)cc3ccc(C4=CCN(S(=O)(=O)C5CC5)CC4)cc3c2F)S(=O)(=O)N1 [Compound 297] tested on B16F10 mouse melanoma cells; recorded inhibition at 33 µM was 25 to 59%

Lab note: compound O=C1CN(c2c(O)cc3ccc(OCCC4CC4)cc3c2F)S(=O)(=O)N1 [Compound 211] tested on B16F10 mouse melanoma cells; recorded inhibition at 33 µM was 60 to 90%

Lab note: compound N#C/C=C/c1ccc2cc(O)c(N3CC(=O)NS3(=O)=O)c(F)c2c1 [Compound 208] tested on B16F10 mouse melanoma cells; recorded inhibition at 33 µM was < 25%

Lab note: compound O=C1CN(c2c(O)cc3ccc(OCCN4CCC4)cc3c2F)S(=O)(=O)N1 [Compound 105] tested on B16F10 mouse melanoma cells; recorded inhibition at 33 µM was 60 to 90%

Lab note: compound O=C1CN(c2c(O)cc3ccc(OCCOCC4CC4)cc3c2F)S(=O)(=O)N1 [Compound 212] tested on B16F10 mouse melanoma cells; recorded inhibition at 33 µM was 60 to 90%

Lab note: compound COC(C)(C)CCOc1ccc2cc(O)c(N3CC(=O)NS3(=O)=O)c(F)c2c1 [Compound 170] tested on B16F10 mouse melanoma cells; recorded inhibition at 33 µM was 60 to 90%

Lab note: compound O=C1CN(c2c(O)cc3ccc(OC(F)F)cc3c2F)S(=O)(=O)N1 [Compound 260] tested on B16F10 mouse melanoma cells; recorded inhibition at 33 µM was 25 to 59%

---

# SYSTEM: His tagged PTPN2 (TC45) protein (Homo sapiens)
# Construct: made in house
# Sequence (P17706 with tags, fused parts or gaps isoform P17706-2): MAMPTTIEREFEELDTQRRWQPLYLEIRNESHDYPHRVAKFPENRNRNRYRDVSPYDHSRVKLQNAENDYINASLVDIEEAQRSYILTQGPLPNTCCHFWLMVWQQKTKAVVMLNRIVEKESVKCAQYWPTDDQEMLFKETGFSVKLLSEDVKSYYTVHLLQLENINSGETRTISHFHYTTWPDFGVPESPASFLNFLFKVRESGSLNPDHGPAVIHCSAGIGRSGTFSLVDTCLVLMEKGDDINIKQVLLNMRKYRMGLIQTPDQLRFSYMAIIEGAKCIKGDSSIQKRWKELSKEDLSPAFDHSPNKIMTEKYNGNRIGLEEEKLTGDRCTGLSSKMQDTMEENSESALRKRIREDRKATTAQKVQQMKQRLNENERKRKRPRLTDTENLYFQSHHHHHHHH
# EXPERIMENT NOTES: Mobility shift assay (MSA) for potency of PTPN2 inhibitors
# Format: biochemical
# MEASUREMENT CONDITIONS: Table 4; read-out: PTPN2 MSA IC50
Recorded IC50 for the following compounds

> print(dat)
                                   compound                                    system   measurement
1  COc1ccc2cc(O)c(N3CC(=O)NS3(=O)=O)cc2c1 [Compound X, reference compound]  His tagged PTPN2 (TC45) protein (Homo sapiens)  10 to 100 nM

--- query ---
Lab note: compound COc1ccc2cc(O)c(N3CC(=O)NS3(=O)=O)c(F)c2c1 [Compound 124] tested on His tagged PTPN2 (TC45) protein (Homo sapiens); recorded IC50 was 1 to 10 nM
